# assayed_system: human neurokinin-3 receptors expressed in CHO cell lines (Homo sapiens, UniProt P29371)
# Sequence (P29371 whole entry): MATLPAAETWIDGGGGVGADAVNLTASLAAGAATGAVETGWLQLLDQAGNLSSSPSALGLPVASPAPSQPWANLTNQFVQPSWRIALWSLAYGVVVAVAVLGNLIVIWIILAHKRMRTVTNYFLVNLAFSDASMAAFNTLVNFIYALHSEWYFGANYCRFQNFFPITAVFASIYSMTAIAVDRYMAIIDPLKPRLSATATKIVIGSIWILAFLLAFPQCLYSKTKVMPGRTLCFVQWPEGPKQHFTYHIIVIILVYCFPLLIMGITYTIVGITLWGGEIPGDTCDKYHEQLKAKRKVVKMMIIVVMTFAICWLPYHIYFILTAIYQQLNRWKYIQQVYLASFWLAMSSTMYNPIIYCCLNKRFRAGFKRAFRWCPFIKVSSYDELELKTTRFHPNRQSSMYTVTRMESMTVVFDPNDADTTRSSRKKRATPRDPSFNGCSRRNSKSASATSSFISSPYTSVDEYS
# measurement_protocol: biochemical
# stated_conditions: human NK-3 receptors in CHO cell lines; radioligand [125I]-[Me-Phe7]-NKB; mean of 2-5 separate experiments in duplicate or triplicate; read-out: Binding affinity in hNK-3-CHO IC50
Structures can show the parent of a compound that is named as a salt.
Grouping rule (IC50): low class: < 0.8 nM; middle class: ≥ 0.8 nM and < 2 nM; high class: ≥ 2 nM

molecule | label_class
CC[C@H](NC(=O)c1c(OCCNC2Cc3ccccc3C2)c(-c2ccccc2)nc2ccccc12)c1ccccc1 [Example 8, hydrochloride] | middle class
CC[C@H](NC(=O)c1c(OCCNC(=O)Cc2ccccc2)c(-c2ccccc2)nc2ccccc12)c1ccccc1 | low class
CC[C@H](NC(=O)c1c(OCCNC(=O)Cc2ccccc2CN2CCCC2)c(-c2ccccc2)nc2ccccc12)c1ccccc1 | middle class

q: Could you place CC[C@H](NC(=O)c1c(OCCCC(=O)O)c(-c2ccccc2)nc2ccccc12)c1ccccc1 in its proper category? Many thanks.
a: middle class

q: Could you place CC[C@H](NC(=O)c1c(OCc2ccncc2)c(-c2ccccc2)nc2ccccc12)c1ccccc1 in its proper category? Many thanks.
a: middle class

q: Could you place CC[C@H](NC(=O)c1c(OCCNC(=O)CN)c(-c2ccccc2)nc2ccccc12)c1ccccc1 in its proper category? Many thanks.
a: high class

q: Could you place CC[C@H](NC(=O)c1c(OCCNC(=O)Cc2ccncc2)c(-c2ccccc2)nc2ccccc12)c1ccccc1 in its proper category? Many thanks.
a: middle class

q: Could you place CC[C@H](NC(=O)c1c(OCCNC(=O)CCC(=O)O)c(-c2ccccc2)nc2ccccc12)c1ccccc1 in its proper category? Many thanks.
a: high class

q: Could you place CC[C@H](NC(=O)c1c(OCCNC(=O)c2cnccn2)c(-c2ccccc2)nc2ccccc12)c1ccccc1 in its proper category? Many thanks.
a: low class

q: Could you place CC[C@H](NC(=O)c1c(OCCCNC(=O)c2cnccn2)c(-c2ccccc2)nc2ccccc12)c1ccccc1 in its proper category? Many thanks.
a: low class

q: Could you place CC[C@H](NC(=O)c1c(OCCNC(=O)c2ccccc2CC(=O)O)c(-c2ccccc2)nc2ccccc12)c1ccccc1 in its proper category? Many thanks.
a: middle class

q: Could you place CC[C@H](NC(=O)c1c(OCCNC(=O)c2ccccc2)c(-c2ccccc2)nc2ccccc12)c1ccccc1 in its proper category? Many thanks.
a: high class

q: Could you place CC[C@H](NC(=O)c1c(OCCNC(=O)Cc2ccccc2O)c(-c2ccccc2)nc2ccccc12)c1ccccc1 in its proper category? Many thanks.
a: low class
